# assayTarget: 3-oxo-5-alpha-steroid 4-dehydrogenase 1 (Homo sapiens)
# Sequence (P18405 whole entry): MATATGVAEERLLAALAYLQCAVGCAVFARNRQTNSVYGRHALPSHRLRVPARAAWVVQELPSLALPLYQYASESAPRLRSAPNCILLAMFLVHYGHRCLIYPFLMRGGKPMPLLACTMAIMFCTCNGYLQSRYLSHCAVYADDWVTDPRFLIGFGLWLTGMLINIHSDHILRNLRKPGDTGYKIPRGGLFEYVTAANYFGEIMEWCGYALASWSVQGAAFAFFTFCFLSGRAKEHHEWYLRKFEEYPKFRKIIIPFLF
# testSummary: Inhibitory concentration against human recombinant steroid 5-alpha-reductase type I in stably transfected chinese hamster ovary (CHO) 1827 cells using [3H]testosterone.
pIC50: −log10 of the molar value.
Label Yes when pIC50 is at or above 7; otherwise label No.

Example cases with answers are listed next.
CC1=C2CCc3cc(OCc4ccccc4Cl)ccc3N2CCC1=O; No
CC1=C2CCc3cc(Br)ccc3N2CCC1=O; Yes
CC1=C2CCc3cc(/C=C\c4ccccc4)ccc3N2CCC1=O; Yes
CC1=C2CCc3cc(-c4cccnc4)ccc3N2CCC1=O; No
COC(=O)c1cccc(OC(=O)c2ccc3c(c2)CCC2=C(C)C(=O)CCN23)c1; No
CC1=C2CCc3cc(Cl)ccc3N2CCC1=O; Yes
CC1=C2CCc3cc(C#Cc4ccccc4)ccc3N2CCC1=O; Yes
C=Cc1ccc2c(c1)CCC1=C(C)C(=O)CCN12; Yes

Reported pIC50 reaches at least 7 for CC1=C2CCc3cc(C(=O)Oc4ccc(C(C)(C)C)cc4)ccc3N2CCC1=O ?
No

----------
# testSummary: Partition coefficient (logP)
# Format: physicochemical
# reportedConditions: octanol/water
Label TRUE when logP is at or above 4; otherwise label FALSE.

Example cases with answers are listed next.
CC1=C2CCc3cc(C)ccc3N2CCC1=O; FALSE
CC1=C2CCc3cc(-c4cccs4)ccc3N2CCC1=O; TRUE
CC1=C2CCc3cc(OCc4ccccc4)ccc3N2CCC1=O; TRUE
COc1ccc2c(c1)CCC1=C(C)C(=O)CCN12; FALSE
CC1=C2CCc3cc(C(=O)OCc4ccccc4)ccc3N2CCC1=O; TRUE

Reported logP reaches at least 4 for C=Cc1ccc2c(c1)CCC1=C(C)C(=O)CCN12 ?
FALSE

Reported logP reaches at least 4 for CC1=C2CCc3cc(C(=O)Oc4ccccc4)ccc3N2CCC1=O ?
TRUE

Reported logP reaches at least 4 for COC(=O)c1ccc(OC(=O)c2ccc3c(c2)CCC2=C(C)C(=O)CCN23)cc1 ?
TRUE

Reported logP reaches at least 4 for CC1=C2CCc3cc(OCc4ccc(Cl)cc4)ccc3N2CCC1=O ?
TRUE

----------
# assayTarget: 3-oxo-5-alpha-steroid 4-dehydrogenase 1 (Homo sapiens)
# testSummary: Inhibitory concentration against human recombinant steroid 5-alpha-reductase type I in stably transfected chinese hamster ovary (CHO) 1827 cells using [3H]testosterone.
readout: pIC50
Notebook: values listed as pIC50 are -log10 of the concentration (mol/L).

CC1=C2CCc3cc(-c4ccccc4)ccc3N2CCC1=O; 6.89
COC(=O)c1ccc2c(c1)CCC1=C(C)C(=O)CCN12; 6.93
CC1=C2CCc3cc(C(=O)OCc4ccccc4)ccc3N2CCC1=O; 7.01
CC1=C2CCc3cc(OCc4ccc(C(F)(F)F)cc4)ccc3N2CCC1=O; 7.08
COC(=O)c1ccc(OC(=O)c2ccc3c(c2)CCC2=C(C)C(=O)CCN23)cc1; 6.92

The value of pIC50 measured for the compound CC1=C2CCc3cc(OCc4cccc(Cl)c4)ccc3N2CCC1=O turned out to be 7.03

The value of pIC50 measured for the compound CC1=C2CCc3cc(OCc4ccc(C(F)(F)F)cc4C(F)(F)F)ccc3N2CCC1=O turned out to be 6.83

The value of pIC50 measured for the compound CC1=C2CCc3cc(OCc4ccccc4)ccc3N2CCC1=O turned out to be 6.95

The value of pIC50 measured for the compound CC1=C2CCc3cc(-c4cccs4)ccc3N2CCC1=O turned out to be 7.10
